Taken from ChEMBL document CHEMBL4402514.

# test-name: Partition coefficient, logP of compound
# Type: physicochemical
# condition-description: octanol/water
observable: logP

Recorded results for 5 compounds are shown here.
Sure, the documented logP for `N=C(N)NCCCCCC(=O)O[C@H]1C[C@H](n2cc([125I])c(=O)[nH]c2=O)O[C@@H]1CO` is -0.2

Documented logP of `N=C(N)NCCCCCC(=O)OC[C@H]1O[C@@H](n2cc([125I])c(=O)[nH]c2=O)C[C@@H]1O` : -0.2

Reported logP ( N=C(N)NCc1cccc(I)c1 [IOBENGUANE] ) = 1.63

// `N=C(N)NCCC(=O)OC[C@H]1O[C@@H](n2cc([125I])c(=O)[nH]c2=O)C[C@@H]1O` : logP value = -1.48

Form: compound = CC(C)(C)c1cc(C(C)(C)C)c2c(c1F)COP(=O)(OC[C@H]1O[C@@H](n3cc([125I])c(=O)[nH]c3=O)C[C@@H]1OC(=O)CCCCCNC(=N)N)O2 (some centres not stated) ; logP = 4.58

A. N=C(N)NCc1ccc(C(=O)OC[C@H]2O[C@@H](n3cc([125I])c(=O)[nH]c3=O)C[C@@H]2O)cc1
B. N=C(N)NC[C@H]1O[C@@H](n2cc([125I])c(=O)[nH]c2=O)C[C@@H]1O
Qu. Form: Entry with minimum logP (choose one): A / B Please indicate the selected item by its label.
Ans. B
